biological target: Aβ42 (Homo sapiens, UniProt P05067); assay: Th-T (thioflavin-T) assay of Aβ42 aggregation; assay type: biochemical; conditions: reading M117; compound at 10 (head suffix _10)
Sequence (P05067 672-713): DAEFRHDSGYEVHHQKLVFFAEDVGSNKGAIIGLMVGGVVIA
QUANTITY_NAME: Th-T fluorescence, mean of three wells (Fig. 7a)
I only need the number, thanks.

Reference set, count: 4
COMPOUND | ASSAYED_TARGET | RECORDED_RESULT
C=C1CC[C@@H]2[C@](C)(CC[C@H]3O[C@H](C=C(C)C)C[C@@]23C)[C@@H]1Cc1c(OC)oc(CO)c(C(=O)OC)c1=O [Compound 21] | Aβ42 (Homo sapiens, UniProt P05067) | 1.657
C=C1CCC2C(C)(CCC=C(C)C)C(O)CCC2(C)C1Cc1c(OC)oc(CO)c(C)c1=O (centres unmarked) [Compound 12] | Aβ42 (Homo sapiens, UniProt P05067) | 2.5929
C=C1CC[C@@H]2[C@](C)(CC[C@H]3O[C@H](C=C(C)C)C[C@@]23C)[C@@H]1Cc1c(OC)oc(CO)c(C)c1=O [Compound 20] | Aβ42 (Homo sapiens, UniProt P05067) | 3.211
C=C1CCC2C(C)(CCC=C(C)C)C(O)CCC2(C)C1Cc1c(OC)oc(CO)c(C(=O)OC)c1=O (centres unmarked) [Compound 13] | Aβ42 (Homo sapiens, UniProt P05067) | 1.5424

*Q* Find the measured Th-T fluorescence, mean of three wells (Fig. 7a) of C=C1CCC2C(C)(CCC=C(C)C)C(O)CCC2(C)C1Cc1c(OC)oc(C)c(C(=O)OC)c1=O (centres unmarked) [Compound 14] and report it.
*A* 2.891
